# assay protocol: Human liver microsome stability
# Format: in vitro ADME
# measurement parameters: human, pooled human liver microsomes, pH 7.4, pooled human liver microsomes 0.5 mg/mL, 1 μM compound, NADPH 1 mM, 37° C., 0-60 min; read-out: HLM Metabolism t1/2
The entries below come with measured half-life at 1 μM values attached.

>  <compound>
Cc1nnn(-c2ccc(C(C)N3C[C@@H](C)n4nc5c(c4C3=O)CN(C(=O)c3ccc(Cl)c(Cl)c3)[C@H](C)C5)cn2)n1 (single isomer, unassigned) [Compound 26A]

>  <relational operator>
=

>  <half-life at 1 μM [h]>
1.38

$$$$
>  <compound>
CNC(=O)C(c1ccc(OC(F)F)cc1)N1C[C@@H](C)n2nc3c(c2C1=O)CN(C(=O)c1ccc(Cl)c(Cl)c1)[C@H](C)C3 (single isomer, unassigned) [Compound 23A]

>  <relational operator>
=

>  <half-life at 1 μM [h]>
1.88

$$$$
>  <compound>
C[C@@H]1Cc2nn3c(c2CN1C(=O)c1ccc(Cl)c(Cl)c1)C(=O)N([C@@H](C)c1ccc([S@@](C)(=N)=O)cc1)C[C@H]3C (relative stereo) [Compound 18D]

>  <relational operator>
>

>  <half-life at 1 μM [h]>
3

$$$$
>  <compound>
CC(c1ccc(C(C)(C)O)nc1)N1C[C@@H](C)n2nc3c(c2C1=O)CN(C(=O)c1cc(F)c(Cl)c(F)c1)[C@H](C)C3 (single isomer, unassigned) [Compound 60A]

>  <relational operator>
>

>  <half-life at 1 μM [h]>
3

$$$$
>  <compound>
CC(c1cnn(C2CC2)c(=O)c1)N1C[C@@H](C)n2nc3c(c2C1=O)CN(C(=O)c1ccc(Cl)c(C(F)(F)F)c1)[C@H](C)C3 (single isomer, unassigned) [Compound 54A]

>  <relational operator>
=

>  <half-life at 1 μM [h]>
1.29

$$$$
>  <compound>
CC(c1ccccn1)N1C[C@@H](C)n2nc3c(c2C1=O)CN(C(=O)c1ccc(Cl)c(Cl)c1)[C@H](C)C3 (single isomer, unassigned) [Compound 65A]

>  <relational operator>
=

>  <half-life at 1 μM [h]>
2.53

$$$$
>  <compound>
CC(c1ccc(S(C)(=O)=O)cc1)N1C[C@@H](C)n2nc3c(c2C1=O)CN(C(=O)c1ccc(Cl)c(Cl)c1)[C@H](C)C3 (single isomer, unassigned) [Compound 15A]

>  <relational operator>
>

>  <half-life at 1 μM [h]>
3

$$$$
>  <compound>
CC(c1ccc(-n2cncn2)nc1)N1C[C@@H](C)n2nc3c(c2C1=O)CN(C(=O)c1ccc(Cl)c(Cl)c1)[C@H](C)C3 (single isomer, unassigned)

>  <relational operator>
>

>  <half-life at 1 μM [h]>
3

$$$$
>  <compound>
CC(c1ccnc(Cl)c1)N1C[C@@H](C)n2nc3c(c2C1=O)CN(C(=O)c1ccc(Cl)c(Cl)c1)[C@H](C)C3 (single isomer, unassigned) [Compound 31A]

>  <relational operator>
=

>  <half-life at 1 μM [h]>
1.9

$$$$
>  <compound>
CC(c1ccnc(OC(F)F)c1)N1C[C@@H](C)n2nc3c(c2C1=O)CN(C(=O)c1ccc(Cl)c(C(F)(F)F)c1)[C@H](C)C3 (single isomer, unassigned) [Compound 50A]

>  <relational operator>
>

>  <half-life at 1 μM [h]>
3

$$$$
